# system_name: T1, human neonatal Fc receptor (hFcRn) (human, UniProt P55899 24-290; P61769 21-119)
# T1 construct: Biotinylated in the ELISA, Octet and yeast assays; also called human FcRn; huFcRn
# assay: phage ELISA pH 7.4;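 further: higher score means stronger binding and above about 3 to 5 exceeds background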
recorded_endpoint: ELISA score
In your answer, state the number alone without any accompanying words.

Tell me measured ELISA score for L6B isolate with insertion SEQ ID NO: 454 (other) EPKSCDKTHTCPPCPAPELLGGPSVFLFPPKPKDTLMISRTPEVTCVVVDVSHEDPEVKFNWYVDGVEVHNAKTKPREEQYNSTYRVVSVLTVLHQDWLNGKEYKCKVSNKALPAPIEKTISKAKGQPREPQVYTLPPSRDELGGCYGKAGMRDCGGTKNQVSLTCLVKGFYPSDIAVEWESNGQPENNYKTTPPVLDSDGSFFLYSKLTVDKSRWQQGNVFSCSVMHEALHNHYTQKSLSLSPGK please. 0.4

Tell me measured ELISA score for L5 isolate with insertion SEQ ID NO: 395 (other) EPKSCDKTHTCPPCPAPELLGGPSVFLFPPKPKDTLMISRTPEVTCVVVDVSHEDPEVKFNWYVDGVEVHNAKTKPREEQYNSTYRVVSVLTVLHQDWLNGKEYKCKVSNKALPAPIEKTISKAKGQPREPQVYTLPPSRDELTKNQVSLTCLVKGFYPSDIAVEWESNGGCILNFYGCGGGQPENNYKTTPPVLDSDGSFFLYSKLTVDKSRWQQGNVFSCSVMHEALHNHYTQKSLSLSPGK please. 23.5

Data origin: patent US20140356358A1
